Values compiled from ChEMBL document CHEMBL3044885.

tested on: Rhizoctonia solani; assay: Fungicidal activity against Rhizoctonia solani inoculated on compound pre-treated fifth-leaf stage rice seedlings through foliar spraying assessed as inhibition of rice sheath blight disease at 500 ppm measured 4 days post fungal inoculation
Exercise: for every item that follows, state its recorded inhibition at 500 ppm.
Numeric answer only, unit % assumed.

*Q* Hi! What's the reported inhibition at 500 ppm for CCCSc1nnc(-c2cc(CC)nn2C)o1 on Rhizoctonia solani?
*A* 70

*Q* Input CCCCCSc1nnc(-c2c(Cl)c(CC)nn2C)s1
*A* 70

*Q* Input CCc1cc(-c2nnc(SC)o2)n(C)n1
*A* 90

*Q* Input CCc1cc(-c2nnc(S)o2)n(C)n1
*A* 50

*Q* Input CCc1nnc(-c2c(Cl)c(CC)nn2C)o1
*A* 70

*Q* Input CCc1nn(C)c(-c2nnc(SC)s2)c1Cl
*A* 90

*Q* Input CCc1nn(C)c(-c2n[nH]c(=O)o2)c1Cl
*A* 0

*Q* Input CCCCCCCSc1nnc(-c2c(Cl)c(CC)nn2C)o1
*A* 50

*Q* Input CCc1nn(C)c(-c2nnc(S)s2)c1Cl
*A* 100

*Q* Input CCCCCSc1nnc(-c2cc(CC)nn2C)o1
*A* 50

*Q* Input COC(=O)Nc1nc2ccccc2[nH]1
*A* 100

*Q* Input CCCSc1nnc(-c2c(Cl)c(CC)nn2C)s1
*A* 70

*Q* Input CCOC(=O)C(C)Sc1nnc(-c2c(Cl)c(CC)nn2C)o1 (stereo not drawn)
*A* 0
